Procedure Text: BSK_KF3CT_SRB: Viability Assessment in the BioMAP Diversity Plus: KF3CT Assay (AID 2283069);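 also: total protein by sulforhodamine B staining as a cytotoxicity measure; read 24 h after compound addition; fitted for both signal gain and loss against DMSO baseline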
Measurement Conditions: primary human keratinocytes with fibroblasts
The source made the active and inactive calls. The calls were made as follows: active = hit-call score of the fitted dose curve at least 0.9, where 1 is the maximum; inactive = score below 0.9.
Write down the outcome that applies. Available outcomes: active, inactive

# count of solved cases: 4
CC(=O)c1ccc2c(c1)[C@H](NC(=O)c1ccc(F)cc1)[C@@H](O)C(C)(C)O2; inactive
O=C(O)c1cccc(N(Cc2cccnc2)c2ccc(OC(F)F)c(OC(F)F)c2)c1; inactive
C=CCCCCCCCCC(=O)O; inactive
Oc1ccc2c(c1)-c1ccccc1C2; inactive

Data request: Which outcome was assigned to CC[C@H]1CC[C@H](NCc2cc3c(cc2OC)[C@H]2C[C@H]2C(=O)N3C)[C@H](c2ccccc2)N1 in this test?
Data returned: inactive

Data credit: PubChem BioAssay (EPA / NIEHS)
